System: Cisplatin resistant cell line MCP1
protocol summary: growth (tetrazolium dye-based microtitration) cytotoxicity assay, MCP1
Format: cell-based, human
settings: rapport of the IC50 between A2780 and MCP1; the lower RF the better
recorded endpoint: RF2
Just the number, please.

Task item: Record request: RF2 value, item `[Br-].c1ccc(CN2CC[n+]3c2c2ccccc2c2ccccc23)cc1`
Reply: 0.6

Task item: Record request: RF2 value, item `COc1ccc(CN2CC[n+]3c2c2ccccc2c2cc(Br)ccc23)cc1.[Br-]`
Reply: 1.2

Task item: Record request: RF2 value, item `CCCN1CC[n+]2c1c1ccccc1c1ccccc12`
Reply: 0.4

Task item: Record request: RF2 value, item `COc1ccc([C@@H](C)N2CC[n+]3c2c2ccccc2c2ccccc23)cc1`
Reply: 0.5

Task item: Record request: RF2 value, item `[Br-].c1ccc2c(c1)c1[n+](c3ccccc23)CCN1C1CC1`
Reply: 1.1

Task item: Record request: RF2 value, item `COC(=O)CN1CC[n+]2c1c1ccccc1c1ccccc12.[Br-]`
Reply: 0.7

---

Test system: Cisplatin resistant cell line MCP1
protocol summary: growth (tetrazolium dye-based microtitration) cytotoxicity assay, MCP1
Type: cell-based, human
settings: rapport of the IC50 between A2780 and MCP1; the lower RF the better
recorded endpoint: RF2
Just the number, please.

COc1ccc(N2CC[n+]3c2c2ccccc2c2ccccc23)cc1.[Br-]; 0.3
[Br-].c1ccc(C(CCN2CC[n+]3c2c2ccccc2c2ccccc23)c2ccccc2)cc1; 1

Task item: Record request: RF2 value, item `OCCN1CC[n+]2c1c1ccccc1c1ccccc12.[Br-]`
Reply: 0.7

Task item: Record request: RF2 value, item `Br.Br.Br.O=C(CN1CC[n+]2c1c1ccccc1c1ccccc12)N1CCCN(C(=O)CN2CC[n+]3c2c2ccccc2c2ccccc23)CCCN(C(=O)CN2CC[n+]3c2c2ccccc2c2ccccc23)CCC1`
Reply: 0.5

Task item: Record request: RF2 value, item `COc1ccc(CN2CC[n+]3c2c2ccccc2c2ccccc23)cc1.[Br-]`
Reply: 0.7

Task item: Record request: RF2 value, item `O=C(CN1CC[n+]2c1c1ccccc1c1ccccc12)N1CCN(C(=O)CN2CC[n+]3c2c2ccccc2c2ccccc23)CC1.[Br-].[Br-]`
Reply: 0.6

Task item: Record request: RF2 value, item `COC(=O)[C@@H](Cc1ccccc1)N1CC[n+]2c1c1ccccc1c1ccccc12.[Br-]`
Reply: 1.1
